Biological target: CDK7/cyclinH/MAT1 trimeric complex (Homo sapiens, UniProt P50613)
Sequence (P50613 whole entry): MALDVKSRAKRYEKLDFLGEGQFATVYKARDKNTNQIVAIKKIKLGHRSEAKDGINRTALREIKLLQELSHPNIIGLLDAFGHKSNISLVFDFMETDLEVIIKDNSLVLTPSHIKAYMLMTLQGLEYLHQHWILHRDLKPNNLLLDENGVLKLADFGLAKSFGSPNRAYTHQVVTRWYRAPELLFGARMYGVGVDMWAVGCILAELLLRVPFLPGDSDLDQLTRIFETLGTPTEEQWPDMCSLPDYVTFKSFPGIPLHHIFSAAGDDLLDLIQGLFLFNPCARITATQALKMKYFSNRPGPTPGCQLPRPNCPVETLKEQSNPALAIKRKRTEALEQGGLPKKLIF
Sequence (P51946 whole entry partner): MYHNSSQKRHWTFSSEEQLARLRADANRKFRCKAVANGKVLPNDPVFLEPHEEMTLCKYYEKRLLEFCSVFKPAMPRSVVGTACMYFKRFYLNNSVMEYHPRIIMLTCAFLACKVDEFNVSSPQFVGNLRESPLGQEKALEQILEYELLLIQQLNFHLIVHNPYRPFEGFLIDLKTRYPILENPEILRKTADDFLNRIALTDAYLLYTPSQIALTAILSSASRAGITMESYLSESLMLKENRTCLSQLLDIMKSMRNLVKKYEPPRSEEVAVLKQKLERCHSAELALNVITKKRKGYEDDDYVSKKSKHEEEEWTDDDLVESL
Sequence (P51948 whole entry partner): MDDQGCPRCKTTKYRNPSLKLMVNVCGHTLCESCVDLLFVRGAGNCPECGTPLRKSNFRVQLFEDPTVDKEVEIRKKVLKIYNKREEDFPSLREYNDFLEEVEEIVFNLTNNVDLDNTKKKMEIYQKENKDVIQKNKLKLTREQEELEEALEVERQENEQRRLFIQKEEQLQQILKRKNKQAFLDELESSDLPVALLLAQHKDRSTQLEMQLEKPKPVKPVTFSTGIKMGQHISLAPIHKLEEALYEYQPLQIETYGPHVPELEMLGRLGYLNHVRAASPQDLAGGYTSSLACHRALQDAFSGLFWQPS
Experiment: In vitro CDK7 assay, potency of irreversible covalent inhibitors (kinact/KI), coupled PK/LDH ADP readout at 340 nm
Settings: CDK7 (KI(μM)), […]; 1 mM ATP, room temperature; averaged values over all measurements
readout: Ki (µM)

C=CC(=O)N1CC(N2CCC(c3ccc4c(c3)Nc3nccc(N5CCOCC5)c3CO4)C(C)(C)C2)C1 (stereo not drawn) [Compound 41]	0.083
C=CC(=O)N1CCC(c2ccc(-c3ccc4c(c3)Nc3nccc(N5CCOCC5)c3CO4)cn2)C1 (stereo not drawn) [Compound 25]	0.0648
C=CC(=O)Nc1ccc(C(=O)Nc2ccc3c(c2)Nc2ncc(C)c(C4CCOCC4)c2CO3)cc1 [Compound 2]	0.129
C=CC(=O)N1CC(N2CCC(c3ccc4c(c3)Nc3ncc(C#N)c(N5CCOCC5)c3CO4)CC2)C1 [Compound 45]	0.123
C=CC(=O)Nc1ccc(C(=O)Nc2ccc3c(c2)Nc2nccc(C4CCOCC4)c2CO3)cc1 [Compound 1]	0.107

1: C=CC(=O)N1CC[C@H]2CN(c3ccc4c(c3)Nc3nccc(N5CCOCC5)c3CO4)CC[C@@H]21 (racemic) [Compound 48]
2: C=CC(=O)N1CC(N2CCC(c3ccc4c(c3)OCc3c(N5CCOCC5)ccnc3N4)CC2)C1 [Compound 35]
3: C=CC(=O)N1CC(N2CCC(c3ccc4c(c3)Nc3nccc(N5CCC6(CCO6)CC5)c3CO4)CC2)C1 [Compound 46]
Reorder the items by Ki, least to greatest. Quick reminder: the answer is the labels in the order asked. 2, 3, 1
(2: 0.123 µM, 3: 0.223 µM, 1: 0.325 µM)

a: C=CC(=O)N1CC(C#Cc2ccc3c(c2)Nc2nccc(C4CCOCC4)c2CO3)C1 [Compound 33]
b: O=C(/C=C/CN1CCOCC1)N1CC(N2CCC(c3ccc4c(c3)Nc3nccc(N5CCOCC5)c3CO4)CC2)C1 [Compound 57]
// which entry reports the smaller Ki, a or b ? I would appreciate it if you answered with the label of your choice. a
(a: 0.15 µM, b: 0.248 µM)

----------
Molecular target: CDK7/cyclinH/MAT1 trimeric complex (Homo sapiens, UniProt P50613)
Assay: In vitro CDK7 assay, potency of irreversible covalent inhibitors (kinact/KI), coupled PK/LDH ADP readout at 340 nm
Conditions: read-out: CDK7 (20 nM enz.) (kinact, s^−1), 20 nM enzyme
readout: kinact (s⁻¹)

Worked cases, answers included:
C=CC(=O)N1CC[C@@H](N2CC(c3cc4c(c(C)n3)O[C@@H](C)c3c(N5CCOCC5)ccnc3N4)C2)C1 (single isomer, unassigned)	0.000114
C=CC(=O)N1CC(c2nc(C)c(-c3cc4c(c(C)n3)OCc3c(N5CCOCC5)ccnc3N4)c(C)n2)C1	4.48e-05
CC#CC(=O)N1CC(N2CCC(c3cc4c(c(C)n3)O[C@H](C)c3c(N5CCOCC5)ccnc3N4)CC2)C1 (single isomer, unassigned) [Compound 370]	2.32e-05
C=C(F)C(=O)N1CC(N2CCC(c3ccc4c(c3)Nc3nccc(C5CCOCC5)c3CO4)CC2)C1	3.02e-05
C=CC(=O)N1CC(N2CC(c3cc4c(c(CCC)n3)OCc3c(N5CCOCC5)ccnc3N4)C2)C1	4.4e-05

I: C=CC(=O)N1CC(N2CCC(c3cc4c(c(C)n3)O[C@H](C)c3c(C5CCOCC5)ccnc3N4)CC2)C1 (single isomer, unassigned) [compound 429]
II: CC#CC(=O)N1CCC(N2CC(c3cc(C)c4c(c3)Nc3nccc(C5CCOCC5)c3CO4)C2)C1 (stereo not drawn)
Two entries are listed, I and II . Which one carries the higher kinact? // output: label of the selected item I

1: C=CC(=O)N1CC[C@H](N2CC(c3cc4c(c(C)n3)O[C@@H](C)c3c(N5CCOCC5)ccnc3N4)C2)C1 (single isomer, unassigned)
2: C=CC(=O)N1CC[C@@H](N2CC(c3cc4c(c(C(F)(F)F)c3)OCc3c(N5CCOCC5)ccnc3N4)C2)C1 (single isomer, unassigned)
Which one would you say has the larger kinact value: 1 , or 2 ? Please identify the chosen entry by its label. 1
